# Target of assay: T1, rat sclerostin (rat)
# T1 chain: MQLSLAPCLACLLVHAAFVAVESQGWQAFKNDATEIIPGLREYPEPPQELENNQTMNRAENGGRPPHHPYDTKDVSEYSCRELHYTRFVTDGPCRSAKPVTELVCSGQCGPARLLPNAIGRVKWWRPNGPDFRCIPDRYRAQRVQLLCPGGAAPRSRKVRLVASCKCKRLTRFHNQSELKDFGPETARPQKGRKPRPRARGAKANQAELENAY
# Test name: SPR, pH 5.8, 37C
pKd: −log10 of the molar value.
Lab note: anything with pKd at or over 10 counts as YES; the rest go in NO.

Does mabA_NpH3 (antibody, V domains shown) VH: EVQLVQSGAEVKKPGASVKVSCKASGYTFTDYNMHWVRQAPGQGLEWMGEINPNSGGAGYNQKFKGRVTMTTDTSTSTAYMELRSLRSDDTAVYYCARLGYDDIYDDWYFDVWGQGTTVTVSS VL: DIQMTQSPSSLSASVGDRVTITCRASQDISNYLNWYQQKPGKAPKLLIYYHSRLLSGVPSRFSGSGSGTDFTLTISSLQPEDFATYYCHQGDTLPYTFGGGTKVEIK have a reported pKd of at least 10? YES

One more binder: mabA_NpH1 (antibody, V domains shown) VH: EVQLVQSGAEVKKPGASVKVSCKASGYTFTDYNMHWVRQAPGQGLEWMGEINPNSGGAGYNQKFKGRVTMTTDTSTSTAYMELRSLRSDDTAVYYCARLGYDDIYDDWYFHVWGQGTTVTVSS VL: DIQMTQSPSSLSASVGDRVTITCRASQDISNYLNWYQQKPGKAPKLLIYHTSRLLSGVPSRFSGSGSGTDFTLTISSLQPEDFATYYCQQGDTLPYTFGGGTKVEIK NO

Try the binder mabA_pH2 (antibody, V domains shown) VH: EVQLVQSGAEVKKPGASVKVSCKASGYTFTDYNMHWVRQAPGQGLEWMGEINPNSGHAGYNQKFKGRVTMTTDTSTSTAYMELRSLRSDDTAVYYCARLHYDHIYDDWYFDVWGQGTTVTVSS VL: DIQMTQSPSSLSASVGDRVTITCRASHDISNYLNWYQQKPGKAPKLLIYYTSRLLSGVPSRFSGSGSGTDFTLTISSLQPEDFATYYCQQGDTLPYTFGGGTKVEIK NO

Also mabA_NpH2 (antibody, V domains shown) VH: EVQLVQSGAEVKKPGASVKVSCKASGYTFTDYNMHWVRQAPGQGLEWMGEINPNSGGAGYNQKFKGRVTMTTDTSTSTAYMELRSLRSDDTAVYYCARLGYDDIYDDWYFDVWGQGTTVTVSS VL: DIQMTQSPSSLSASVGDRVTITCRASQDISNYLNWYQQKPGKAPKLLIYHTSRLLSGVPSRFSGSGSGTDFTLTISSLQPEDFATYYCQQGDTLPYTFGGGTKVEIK , if possible. YES

Follow-up item: mabA (antibody, V domains shown) VH: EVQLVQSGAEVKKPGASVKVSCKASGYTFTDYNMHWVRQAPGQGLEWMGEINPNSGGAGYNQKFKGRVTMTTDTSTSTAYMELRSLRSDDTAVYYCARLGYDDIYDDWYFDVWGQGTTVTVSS VL: DIQMTQSPSSLSASVGDRVTITCRASQDISNYLNWYQQKPGKAPKLLIYYTSRLLSGVPSRFSGSGSGTDFTLTISSLQPEDFATYYCQQGDTLPYTFGGGTKVEIK YES

# ---- query binder ----
Could you please find out whether mabA_pH1 (antibody, V domains shown) VH: EVQLVQSGAEVKKPGASVKVSCKASGYTFTDYNMHWVRQAPGQGLEWMGEINPNSGHAGYNQKFKGRVTMTTDTSTSTAYMELRSLRSDDTAVYYCARLHYDDIYDDWYFDVWGQGTTVTVSS VL: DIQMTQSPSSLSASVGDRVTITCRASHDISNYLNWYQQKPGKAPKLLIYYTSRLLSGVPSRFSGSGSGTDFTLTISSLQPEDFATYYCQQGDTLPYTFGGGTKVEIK has pKd that meets 10 or exceeds it? NO
